target.or.test.system: human Lck enzyme (Homo sapiens, UniProt P06239)
Construct: purchased Carna Biosciences, Inc. 08-170
Sequence (P06239 whole entry): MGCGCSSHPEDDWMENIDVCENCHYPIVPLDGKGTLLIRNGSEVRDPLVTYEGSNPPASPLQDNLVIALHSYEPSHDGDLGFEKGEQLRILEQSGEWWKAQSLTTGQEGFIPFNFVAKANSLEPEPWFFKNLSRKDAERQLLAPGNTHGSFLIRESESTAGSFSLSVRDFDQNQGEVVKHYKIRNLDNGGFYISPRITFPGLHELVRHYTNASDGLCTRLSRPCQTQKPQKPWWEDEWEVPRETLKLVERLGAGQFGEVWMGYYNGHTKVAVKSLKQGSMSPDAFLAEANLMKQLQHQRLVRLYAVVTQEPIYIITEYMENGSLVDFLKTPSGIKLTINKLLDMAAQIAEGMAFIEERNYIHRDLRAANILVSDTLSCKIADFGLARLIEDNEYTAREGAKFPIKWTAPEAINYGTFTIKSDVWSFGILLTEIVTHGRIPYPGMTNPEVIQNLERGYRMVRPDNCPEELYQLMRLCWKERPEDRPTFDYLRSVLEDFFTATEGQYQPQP
protocol.description: Lck enzyme inhibitory activity (time-resolved fluorometry, biotinylated peptide phosphorylation)
Assay type: biochemical
protocol.conditions: biotinylated peptide phosphorylation, read-out: LCK_IC50
reported.metric: IC50 (µM)

compound=Cc1cc(Oc2c(F)cccc2F)ncc1-n1ncc(C(=O)c2cc3cc(OCC(F)F)c(NS(=O)(=O)c4cncc(F)c4)cc3[nH]2)c1N reported_metric=IC50 value=0.014
compound=Cc1cc(Oc2ccccc2F)ccc1-n1ncc(C(=O)c2cc3cc(OC(F)F)c(NS(=O)(=O)N4CCOCC4)cc3[nH]2)c1N reported_metric=IC50 value=0.034
compound=Cc1cc(Oc2ccccc2F)ccc1-n1ncc(C(=O)c2cc3cc(F)c(NS(=O)(=O)NC4CCOCC4)cc3[nH]2)c1N reported_metric=IC50 value=0.011

[P] Cc1cc2cc(C(=O)c3cnn(-c4cnc(Oc5c(F)cccc5F)cc4C)c3N)[nH]c2cc1N1C(=O)NC(C)(C(F)(F)F)C1=O (stereo not drawn)
[Q] COc1cc2cc(C(=O)c3cnn(-c4c(C)cc(Oc5ccccc5F)cc4F)c3N)[nH]c2cc1NS(=O)(=O)CC(=O)N1CCOCC1
[R] Cc1cc2[nH]c(C(=O)c3cnn(-c4ccc(Oc5ccccc5F)cc4C)c3N)cc2cc1NS(C)(=O)=O
hey, can you rank those compounds up there by IC50? biggest number first please Thanks in advance for listing the labels in the requested order.
P, Q, R
(P: 0.025 µM, Q: 0.011 µM, R: 0.0017 µM)

====

target.or.test.system: human Yes1 enzyme (Homo sapiens, UniProt P07947)
Construct: made in house
Sequence (P07947 whole entry): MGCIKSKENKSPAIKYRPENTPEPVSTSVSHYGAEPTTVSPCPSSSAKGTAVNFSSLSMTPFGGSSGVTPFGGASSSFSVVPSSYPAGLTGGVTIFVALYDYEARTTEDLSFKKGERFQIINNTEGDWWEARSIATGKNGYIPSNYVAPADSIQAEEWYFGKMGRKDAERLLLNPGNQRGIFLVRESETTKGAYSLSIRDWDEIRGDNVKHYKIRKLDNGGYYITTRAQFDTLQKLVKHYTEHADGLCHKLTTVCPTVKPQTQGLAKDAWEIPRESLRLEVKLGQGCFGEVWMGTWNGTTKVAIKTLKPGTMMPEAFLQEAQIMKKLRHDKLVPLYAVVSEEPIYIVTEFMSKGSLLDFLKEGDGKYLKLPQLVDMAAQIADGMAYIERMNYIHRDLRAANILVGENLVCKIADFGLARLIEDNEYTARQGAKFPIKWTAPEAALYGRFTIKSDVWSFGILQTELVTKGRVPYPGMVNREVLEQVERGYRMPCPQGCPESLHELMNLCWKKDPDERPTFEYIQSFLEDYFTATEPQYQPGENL
protocol.description: Yes1 enzyme inhibitory activity (time-resolved fluorometry, biotinylated peptide phosphorylation)
Assay type: biochemical
protocol.conditions: read-out: YES_IC50
pIC50: −log10 of the molar value.
reported.metric: pIC50

molecule=Cc1cc2cc(C(=O)c3cnn(-c4cnc(Oc5ccccc5F)cc4C)c3N)[nH]c2cc1NS(=O)(=O)CC(=O)N1CCCC1 value=8.77
molecule=Cc1cc(Oc2c(F)cccc2F)ncc1-n1ncc(C(=O)c2cc3cc(F)c(N4CCOC4=O)cc3[nH]2)c1N value=8.96
molecule=Cc1cc(Oc2cccc(F)c2)ccc1-n1ncc(C(=O)c2cc3cc(C4CCN(C(C)C)CC4)c(F)cc3[nH]2)c1N value=9.15
molecule=Cc1cc2cc(C(=O)c3cnn(-c4cnc(Oc5ccccc5F)cc4C)c3N)[nH]c2cc1N1C(=O)NC(C)(C)C1=O value=8.89

[P] Cc1cc(Oc2ccccc2F)ccc1-n1ncc(C(=O)c2cc3cc(OCC(F)F)c(N4C(=O)NC5(CCN(C6COC6)CC5)C4=O)cc3[nH]2)c1N
[Q] Cc1cc2cc(C(=O)c3cnn(-c4cnc(Oc5c(F)cccc5F)cc4C)c3N)[nH]c2cc1N1C(=O)NC2(CCN(Cc3ccccc3)CC2)C1=O
[R] Cc1cc(Oc2ccccc2F)ccc1-n1ncc(C(=O)c2cc3cc(OCC(F)F)c(N4C(=O)NC5(CCN(C6COC6)C5)C4=O)cc3[nH]2)c1N (stereo not drawn)
hey, can you rank those molecules up there by pIC50? biggest number first please Thanks in advance for listing the labels in the requested order.
P, R, Q

====

target.or.test.system: human Lck enzyme (Homo sapiens)
Construct: purchased Carna Biosciences, Inc. 08-170
protocol.description: Lck enzyme inhibitory activity (time-resolved fluorometry, biotinylated peptide phosphorylation)
Type: biochemical
protocol.conditions: biotinylated peptide phosphorylation, read-out: LCK_IC50
reported.metric: IC50 (nM)

The examples below pair each entry with its known result.
compound="Cc1cc(Oc2ccccc2F)ccc1-n1ncc(C(=O)c2cc3cc(OCC(F)F)c(N4CCN(S(C)(=O)=O)CC4)cc3[nH]2)c1N [Example 4-23-005]" units_text=nM value=8.2
compound="COc1cc2cc(C(=O)c3cnn(-c4cnc(Oc5c(F)cccc5F)cc4C)c3N)[nH]c2cc1NS(C)(=O)=O [Example 4-1-009]" units_text=nM value=4.5
compound="CONS(=O)(=O)Nc1cc2[nH]c(C(=O)c3cnn(-c4ccc(Oc5ccccc5F)cc4C)c3N)cc2cc1F [Example 4-5-009]" units_text=nM value=12

[P] COc1cccc(S(=O)(=O)Nc2cc3[nH]c(C(=O)c4cnn(-c5cnc(Oc6ccccc6F)cc5C)c4N)cc3cc2C)n1 [Example 5-1-483]
[Q] COc1cc2cc(C(=O)c3cnn(-c4cnc(Oc5c(F)cccc5F)cc4C)c3N)[nH]c2cc1NS(=O)(=O)CCCF [Example 4-19-001]
Please indicate which has the smaller reported IC50: P , or Q . // output: label of the selected item
Q
